- assay.text: qHTS assay to identify small molecule antagonists of the TGF-beta/Smad signaling pathway - cell viability counter screen (AID 1346824); also: nearly all actives have a fitted effect of over 50% in size
- test.context: SBE-bla HEK293T viability, CellTiter-Glo luminescence; series mostly up to 76.8 µM
Results filed as inconclusive are left out. The source made the active and inactive calls. Calls follow the shape of the dose curve; as a rule, active = well fitted cell-killing curve with a large enough effect in the repeat runs; inconclusive = weak or mixed curves; inactive = flat fitted curve, though single readings scatter.
Parameter call: string, one of Y for active, N for inactive

Could you please tell me the result logged for CC(C)C1CCC(Cc2ccc(Cl)cc2)C1(O)Cn1cncn1 (centres undefined) in this assay?
Y

Could you please tell me the result logged for Nc1ccc(Cl)cc1C(=O)c1ccccc1 in this assay?
N

Could you please tell me the result logged for CC(C)CC(C)N (centres undefined) in this assay?
N

Could you please tell me the result logged for c1ccc2c(c1)OCC(C1=NCCN1)O2 (centres undefined) in this assay?
N

Could you please tell me the result logged for C=CC(=O)OCCCCOC(=O)C=C in this assay?
N

Could you please tell me the result logged for Cc1cccc(OP(=O)(Oc2cccc(C)c2)Oc2cccc(C)c2)c1 in this assay?
N

Could you please tell me the result logged for CC(=O)[O-].[Tl+] in this assay?
N

Could you please tell me the result logged for Nc1ccc([N+](=O)[O-])cc1Cl in this assay?
N

Could you please tell me the result logged for O=c1oc2ccccc2c(O)c1Cc1c(O)c2ccccc2oc1=O in this assay?
N

Could you please tell me the result logged for O=C(Cl)c1ccc(Cl)cc1 in this assay?
N

Could you please tell me the result logged for BrCBr in this assay?
N

Could you please tell me the result logged for Cc1cc(N=Nc2ccccc2C)ccc1N in this assay?
N

Could you please tell me the result logged for Clc1ccc(Oc2ccccc2)cc1 in this assay?
N

Could you please tell me the result logged for Oc1ccc(C(c2ccc(O)cc2)(C(F)(F)F)C(F)(F)F)cc1 in this assay?
N
